Target: human Farnesoid X receptor ligand-binding domain/Gal4 DNA binding domain chimera (Homo sapiens (Human))
Sequence (Q96RI1 262-486, change not shown): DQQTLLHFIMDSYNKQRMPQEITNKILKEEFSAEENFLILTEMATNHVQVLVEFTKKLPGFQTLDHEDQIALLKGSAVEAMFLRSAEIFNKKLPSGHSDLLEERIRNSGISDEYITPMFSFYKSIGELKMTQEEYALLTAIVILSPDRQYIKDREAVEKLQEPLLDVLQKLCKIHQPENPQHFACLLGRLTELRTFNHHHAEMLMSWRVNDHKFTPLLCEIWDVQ
Sequence (P04386 1-147 partner): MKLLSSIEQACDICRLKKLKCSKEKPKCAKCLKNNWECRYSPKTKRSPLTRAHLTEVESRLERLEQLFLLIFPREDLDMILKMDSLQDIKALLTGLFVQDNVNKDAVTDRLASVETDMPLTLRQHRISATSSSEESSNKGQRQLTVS
Assay Summary: Cell-based assay of FXR activation (FXR-UAS-bla HEK 293T beta-lactamase reporter)
Settings: HEK-293T; extent of activation relative to GW4064; cellular FXR beta-lactamase reporter assay; read-out: % Efficacy
Readout Name: Emax (%)
One number for each entry, in %.

Below are some compounds; for each one, tell me its Emax.
1. CCCS(=O)(=O)NC(=O)c1ccc(N2C[C@@H]3C[C@H]2C[C@H]3OCc2c(-c3c(Cl)cccc3Cl)noc2C2CC2)nc1 [Compound I-204]
2. O=C(O)c1cc(C2CCC2)c2nc(N3C[C@@H]4C[C@H]3C[C@H]4OCc3c(-c4c(Cl)cccc4Cl)noc3C3CC3)sc2c1 [Compound I-249]
3. O=C(O)c1cc(F)c(N2C[C@@H]3C[C@H]2C[C@H]3OCc2c(-c3c(Cl)cccc3Cl)noc2C2CC2)c(F)c1 [Compound I-54]
4. O=C(NS(=O)(=O)C1CCOCC1)c1ccc(N2C(=O)[C@@H]3C[C@H]2C[C@H]3OCc2c(-c3c(Cl)cccc3Cl)noc2C2CC2)cc1 [Compound I-338]
5. CC(C)(C)c1cc(C(=O)O)cc2sc(N3C[C@@H]4C[C@H]3C[C@H]4OCc3c(-c4c(Cl)cccc4Cl)noc3C3CC3)nc12 [Compound I-248]
6. O=C(O)c1cc(C2CCOC2)c2nc(N3C[C@@H]4C[C@H]3C[C@H]4OCc3c(-c4c(Cl)cccc4Cl)noc3C3CC3)sc2c1 (stereo partly drawn) [Compound I-251]
7. O=C(O)c1cc(F)c2nc(N3C[C@@H]4C[C@H]3C[C@H]4OCc3c(C4CCCCC4)noc3C3CC3)sc2c1 [Compound I-21]
8. O=C(NS(=O)(=O)C1CC1)c1ccc(N2C[C@@H]3C[C@H]2C[C@H]3OCc2c(-c3c(Cl)cccc3Cl)noc2C2CC2)cc1 [Compound I-60]

Outgoing:
[104, 114, 101, 106, 112, 110, 110, 105]

Below are some compounds; for each one, tell me its Emax.
1. O=C(CCc1ccc(N2C[C@@H]3C[C@H]2C[C@H]3OCc2c(-c3c(F)cccc3Cl)noc2C2CC2)c(F)c1)NS(=O)(=O)C1CC1 [Compound I-240]
2. O=C(O)c1cc([C@H]2CCOC2)c2nc(N3C[C@@H]4C[C@H]3C[C@H]4OCc3c(-c4c(Cl)cccc4Cl)noc3C3CC3)sc2c1 [Compound I-253]
3. CCCCCCCCS(=O)(=O)NC(=O)c1ccc(N2C[C@@H]3C[C@H]2C[C@H]3OCc2c(-c3c(Cl)cccc3Cl)noc2C2CC2)c(F)c1 [Compound I-192]
4. CC(=O)OCCCS(=O)(=O)NC(=O)c1ccc(N2C[C@@H]3C[C@H]2C[C@H]3OCc2c(-c3c(Cl)cccc3Cl)noc2C2CC2)cc1 [Compound I-214]
5. Fc1cc(-c2nn[nH]n2)cc2sc(N3C[C@@H]4C[C@H]3C[C@H]4OCc3c(-c4c(Cl)cccc4Cl)noc3C3CC3)nc12 [Compound I-26]
6. NS(=O)(=O)[C@@H]1CCC[C@H]1OC(=O)c1ccc(N2C(=O)[C@@H]3C[C@H]2C[C@H]3OCc2c(-c3c(Cl)cccc3Cl)noc2C2CC2)cc1F [Compound I-347]

Outgoing:
1. 92
2. 107
3. 106
4. 105
5. 106
6. 135

Below are some compounds; for each one, tell me its Emax.
1. Cc1cc(N2C(=O)[C@@H]3C[C@H]2C[C@H]3OCc2c(-c3c(Cl)cccc3Cl)noc2C2CC2)ccc1C(=O)O [Compound I-316]
2. O=C(O)c1cc(F)c2nc(N3C[C@@H]4C[C@H]3C[C@H]4OC(=O)c3c(C45CCC(CC4)CC5)noc3C3CC3)sc2c1 [Compound I-11]
3. O=C(NS(=O)(=O)C1COC1)c1ccc(N2C[C@@H]3C[C@H]2C[C@H]3OCc2c(-c3c(Cl)cccc3Cl)noc2C2CC2)cc1 [Compound I-184]
4. O=C(NS(=O)(=O)C1CCCC1)c1ccc(N2C(=O)[C@@H]3C[C@H]2C[C@H]3OCc2c(-c3c(Cl)cccc3Cl)noc2C2CC2)cc1 [Compound I-343]

Outgoing:
[109, 28, 108, 105]

Below are some compounds; for each one, tell me its Emax.
1. O=C(O)c1cc(OC2CC2)c2nc(N3C[C@@H]4C[C@H]3C[C@H]4OCc3c(-c4c(Cl)cccc4Cl)noc3C3CC3)sc2c1 [Compound I-259]
2. O=C(NCCS(=O)(=O)C1CC1)c1ccc(N2C[C@@H]3C[C@H]2C[C@H]3OCc2c(-c3c(Cl)cccc3Cl)noc2C2CC2)cc1F [Compound I-171]
3. Cc1cccc(Cl)c1-c1noc(C2CC2)c1CO[C@@H]1C[C@@H]2C[C@H]1CN2c1ccc(CCC(=O)O)cc1F [Compound I-159]
4. O=C(O)c1ccc(N2C[C@@H]3C[C@H]2C[C@H]3OC(=O)c2c(-c3c(Cl)cccc3Cl)noc2C2CC2)c(F)c1 [Compound I-43]
5. FC(F)(F)Oc1cc(-c2nn[nH]n2)cc2sc(N3C[C@@H]4C[C@H]3C[C@H]4OCc3c(-c4c(Cl)cccc4Cl)noc3C3CC3)nc12 [Compound I-27]
6. CCCS(=O)(=O)NC(=O)c1ccc(N2C[C@@H]3C[C@H]2C[C@H]3OCc2c(-c3c(Cl)cccc3Cl)noc2C2CC2)c(F)c1 [Compound I-61]

Outgoing:
114
104
100
124
94
106
